- assayedSystem: AgBzz1-D2
- assayInfo: SPOT peptide array binding signal intensity (averaged, normalized) (arbitrary units (background-subtracted, floor 0; scale differs between SH3 domains)); higher = stronger binding of the SH3 domain to the peptide
recordedEndpoint: SPOT peptide array binding signal intensity

Record excerpt, results attached:
VPPVPLPFGIPPFPM : 10
SSAAPPPPPRRATPE : 18
APPLPPTAPPPPSLP : 3

Here is another binder to look at.
Ask | # query: SPOT peptide array binding signal intensity of entry "GDHPKGPPPPPPPPD"
Reply | 43

Value source: the supplement of paper PMC4466140
